Experimental Target: Hexose transporter 1 (Plasmodium falciparum) (UniProt O97467)
Run Description: ST_JUDE_LEISH: Cytotoxicity at 2uM final concentration against transgenic Leishmania Mexicana promastigotes LmPfHT that are glucose transport deficient and complemented with the Plasmodium falciparum hexose transporter. Activity is measured by DNA content using SYBR green in vitro
Assay type: functional
Measurement Type: inhibition (%)
Provide only the numeric value, understood in %.

Consider the compound shown here: O=C(NCc1ccc(C(F)(F)F)cc1)c1cccc(-c2nnc(-c3cccc(-c4cncnc4)c3)o2)c1 What is its recorded inhibition?
4.62

Consider the compound shown here: CCCCCCCN1CC[C@@H](CCC(O)c2ccnc3ccc(OC)cc23)[C@@H](CC)C1 (some centres undefined) What is its recorded inhibition?
0.63

Consider the compound shown here: COc1ccc(-c2ccc(NC(=O)c3ccc(Cl)cc3)cc2)cc1CN(C)CCO What is its recorded inhibition?
3.45

Consider the compound shown here: O=C(Nc1cccc(CN2CCCN(Cc3ncc[nH]3)CC2)c1)c1ccc(Cl)c(Cl)c1 What is its recorded inhibition?
3.94

Consider the compound shown here: CN(C)CCCc1cc2c(cc1Cl)CCN2C(=O)Nc1ccc(-c2ccncc2)c2ccccc12 What is its recorded inhibition?
-1.62

Consider the compound shown here: COc1ccc(C2CC(c3cccs3)=NN2C(=O)COc2cccc3c2CCCC3O)cc1OC (centres undefined) What is its recorded inhibition?
-0.04

Consider the compound shown here: Clc1ccc(-c2[nH]c3ccccc3c2CN2CCC(N3CCCCC3)CC2)cc1 What is its recorded inhibition?
14.7

Consider the compound shown here: CCN1C(=O)N(CCC(C)C)C2(CCN(Cc3ccc(OC)cc3O)CC2)C1=O What is its recorded inhibition?
3.01

Consider the compound shown here: CC(C)(C)c1cc(CN2CCN(Cc3ccccc3)CC2)cc(C(C)(C)C)c1O What is its recorded inhibition?
2.9

Consider the compound shown here: O=C(/C=C/c1ccc(Cl)c(Cl)c1)NCCCCCN1CCC(c2c[nH]c3c(-c4ccccc4)cccc23)CC1 What is its recorded inhibition?
4.3

Consider the compound shown here: Cc1ccc2c(Cl)c(C(=O)N3CCCc4ccccc43)sc2c1 What is its recorded inhibition?
3.86

Consider the compound shown here: COc1ccc(CNC2CCN(C)CC2)cc1-c1cccc(S(=O)(=O)NCc2ccccc2)c1 What is its recorded inhibition?
1.62

Consider the compound shown here: Cc1ccc2[nH]c(-c3cc(-c4cccc(CCN5CCOCC5)c4)cnc3N)nc2c1 What is its recorded inhibition?
5.93

Consider the compound shown here: COc1ccc2nccc(N3CCC(SCCNCc4ccc5c(n4)NC(=O)CO5)C3)c2n1 (centres undefined) What is its recorded inhibition?
2.93

Consider the compound shown here: COc1cc2c(cc1C=CC(=O)N1CCN(Cc3nc(O)c4c(C)c(C)sc4n3)CC1)OC(C)C2 (centres undefined) What is its recorded inhibition?
3.73

Consider the compound shown here: O=C(Nc1cccc(-c2ccc(-c3nc4cc(F)ccc4[nH]3)cc2)c1)Nc1ccc(Cl)c(Cl)c1 What is its recorded inhibition?
2.93

Consider the compound shown here: CN(C)c1ccc(CN2CCC(NC(=O)c3ccc(-c4cccc(Cl)c4)s3)CC2)cc1 What is its recorded inhibition?
-1

Consider the compound shown here: COc1ccc(-n2ccnc2SCC(=O)Nc2cc(C)ccc2C)c(OC)c1 What is its recorded inhibition?
0.63

Consider the compound shown here: O=C(C=Cc1ccc(Cl)c(Cl)c1)NC1CCN(CCc2ccccc2)CC1 What is its recorded inhibition?
1.06

Consider the compound shown here: COc1cc2c(cc1S(=O)(=O)c1ccc(COc3ccc(C(F)(F)F)cc3)cc1)CNCC2 What is its recorded inhibition?
-0.71

Consider the compound shown here: O=C(Nc1ccc(Cn2ncc(N3CCCNCC3)c(Cl)c2=O)cc1)Nc1ccc(OCc2ccccc2)cc1 What is its recorded inhibition?
-0.65

Consider the compound shown here: CCn1c(C(C)C)cc2c3c(N)nc(N)nc3ccc21 What is its recorded inhibition?
61.1

Consider the compound shown here: CC(C)(C)c1ccc(CN2CCC(NC(=O)c3ccc(-c4cccc(F)c4)s3)CC2)cc1 What is its recorded inhibition?
-2.33

Consider the compound shown here: CCOc1ccc2c(=NN=Cc3ccccn3)cc(C)[nH]c2c1 What is its recorded inhibition?
7.32

Consider the compound shown here: COCCNCc1ccc(-c2ccccc2CNC2CCN(Cc3ccccc3)CC2)cc1 What is its recorded inhibition?
2.36

Consider the compound shown here: COCCN1CCC(C(=O)NCC(C)(C)c2nc(-c3ccc(Br)c(O)c3)c(-c3ccncc3)[nH]2)CC1 What is its recorded inhibition?
8.02

Consider the compound shown here: COC(=O)c1ccc2nc(-c3ccc(/C=C/C(=O)NC4CCN(Cc5ccccc5)CC4)cc3)[nH]c2c1 What is its recorded inhibition?
5.26

Consider the compound shown here: COc1ccc(CCNC(=O)c2cnc3c(c2)nc(-c2c[nH]c(-c4ccccc4)n2)n3CCc2c[nH]cn2)cc1 What is its recorded inhibition?
-1.24

Consider the compound shown here: Cc1cc(N(C)C)nc(Nc2ccc(NC(=O)c3ccccc3C)cc2)n1 What is its recorded inhibition?
17.1

Consider the compound shown here: CCN(C(=O)CSc1cc(C)c2cc(C)cc(C)c2n1)C1CCS(=O)(=O)C1 (centres undefined) What is its recorded inhibition?
0.78

Consider the compound shown here: CCCc1ccc(C(=O)N2C(c3nccs3)C(C(N)=O)CC2(CC(C)C)C(=O)O)cc1 (centres undefined) What is its recorded inhibition?
2.07

Consider the compound shown here: NC12CC3CC(CC(C3)C1)C2 What is its recorded inhibition?
5.42

Consider the compound shown here: CC1(C)NC(N)=NC(=N)N1OCOc1ccc(Cl)cc1 What is its recorded inhibition?
1.85

Consider the compound shown here: CCc1ccc(CN2CCC(C(=O)Nc3ccc(-c4nc5ccccc5[nH]4)cc3)CC2)o1 What is its recorded inhibition?
39.6

Consider the compound shown here: Cc1ccc(Cn2ncc(N3CCCNCC3)c(Cl)c2=O)cc1NC(=O)Nc1ccc(-c2ccccc2)cc1 What is its recorded inhibition?
4.05

Consider the compound shown here: CN(C)CCOc1ccc(NC(=O)NC(C)(C)c2nc(-c3ccc(Cl)c(O)c3)c(-c3ccncc3)[nH]2)cc1 What is its recorded inhibition?
-2.62

Consider the compound shown here: CN1CCCC(CN2CCN(Cc3ccc(-c4cccc(-c5nc6cc(F)ccc6[nH]5)c4)cc3)CC2)C1 (centres undefined) What is its recorded inhibition?
1.31

Consider the compound shown here: COc1ccc2c(c1CCNCCCCNCCc1c(OC)ccc3c1CCCC3)CCCC2 What is its recorded inhibition?
61.4

Consider the compound shown here: COc1ccc2c(=NN=C(C)c3ccccn3)cc(C)[nH]c2c1 What is its recorded inhibition?
9.51

Recorded values, source ChEMBL document CHEMBL3433997.
